Biological target: T1, zebrafish Tac3rb (tac3 receptor b, NKB receptor) (zebrafish)
T1 chain: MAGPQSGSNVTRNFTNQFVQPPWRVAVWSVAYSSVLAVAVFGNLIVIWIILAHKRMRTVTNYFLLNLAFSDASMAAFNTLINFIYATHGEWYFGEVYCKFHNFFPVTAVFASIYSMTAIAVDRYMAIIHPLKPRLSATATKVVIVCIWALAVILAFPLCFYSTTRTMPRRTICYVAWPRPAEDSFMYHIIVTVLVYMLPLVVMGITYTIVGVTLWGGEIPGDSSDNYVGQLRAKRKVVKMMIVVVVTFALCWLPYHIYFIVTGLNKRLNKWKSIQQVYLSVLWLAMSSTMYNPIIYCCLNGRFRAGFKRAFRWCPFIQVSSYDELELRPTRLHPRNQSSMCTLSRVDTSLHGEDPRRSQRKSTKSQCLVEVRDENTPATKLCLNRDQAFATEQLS
Test: cell-based or functional assay
*1 amine or outer side, *2 acyl side, *3 side chain or, on linkers, in order; H or OH if unused. Where no end group is shown, it is not given here. [ ]: non-standard residue; d: D form. Suc = O=C(CCC(=O)[*:2])[*:1]; NMeV = CN[C@H](C(=O)O)C(C)C
Exercise: state measured EC50, CRE-Luc to follow PKA activation, transfected COS-7 cells for each of the binders provided.
// note: answer is a bare numeric in nM

Data point: Suc-DIF[NMeV]GLM-NH2 (SMILES CC[C@H](C)[C@H](NC(=O)[C@H](CC(=O)O)NC(=O)CCC(=O)O)C(=O)N[C@@H](Cc1ccccc1)C(=O)N(C)[C@H](C(=O)NCC(=O)N[C@@H](CC(C)C)C(=O)N[C@@H](CCSC)C(N)=O)C(C)C) [NKBa-analog (Succ-Asp-Ile-Phe-N(Me)Val-Gly-Leu-Met-NH2)] ; EC50, CRE-Luc to follow PKA activation, transfected COS-7 cells = 11.9

Short answer for Suc-DF[NMeV]GLM-NH2 [NKBb-analog (Succ-Asp-Phe-N(Me)Val-Gly-Leu-Met-NH2)] : EC50, CRE-Luc to follow PKA activation, transfected COS-7 cells was 2.18

EC50, CRE-Luc to follow PKA activation, transfected COS-7 cells recorded for this binder, YNDIDYDSFVGLM-NH2 [Zebrafish Tac3f peptide, neurokinin F (YNDIDYDSFVGLM-NH2)] , is 1.8

Source of measurements: patent US20150072933A1
